Here, each record is paired with measured Conversion data.
test system: Rattus norvegicus; assay: Percent conversion of testosterone to dihydrotestosterone in prostate of rats at 3 mg/kg of compound given perorally; format: functional, Prostate gland; conditions: route oral

Compound: CCCC(CCC)n1ccc2cc(/C(=C/C(=O)Nc3ccccc3OCCCC(=O)O)CC)ccc21
Conversion (%): 87
//
Compound: CC(C)(C)NC(=O)[C@H]1CC[C@H]2[C@@H]3CC[C@H]4NC(=O)C=C[C@]4(C)[C@H]3CC[C@]12C [FINASTERIDE]
Conversion (%): 49
//
Compound: CC/C(=C\C(=O)Nc1ccccc1OCCCC(=O)O)c1ccc2c(ccn2C(c2ccc(F)cc2)c2ccc(F)cc2)c1
Conversion (%): 76
//
Compound: Cc1c(O[C@@H](C)c2ccc(CC(C)C)cc2)ccc(C(=O)Nc2ccccc2OCCCC(=O)O)c1C (racemic)
Conversion (%): 88

----------
target: 3-oxo-5-alpha-steroid 4-dehydrogenase 1 (Rattus norvegicus) (UniProt P24008); test: Inhibitory activity of compound towards 5-alpha reductase from rat =; settings: 100 nM
Sequence (P24008 whole entry): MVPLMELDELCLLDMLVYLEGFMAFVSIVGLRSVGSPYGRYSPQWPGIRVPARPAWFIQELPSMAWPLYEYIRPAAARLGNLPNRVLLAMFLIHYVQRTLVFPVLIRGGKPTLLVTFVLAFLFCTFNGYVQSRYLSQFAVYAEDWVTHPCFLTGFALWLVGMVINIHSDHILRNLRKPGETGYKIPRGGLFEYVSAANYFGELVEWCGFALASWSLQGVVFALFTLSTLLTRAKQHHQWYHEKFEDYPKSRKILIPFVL
pIC50: −log10 of the molar value.

Compound: CC(C)(C)NC(=O)[C@H]1CC[C@H]2[C@@H]3CC[C@H]4NC(=O)C=C[C@]4(C)[C@H]3CC[C@]12C [FINASTERIDE]
Target: 3-oxo-5-alpha-steroid 4-dehydrogenase 1 (Rattus norvegicus) (UniProt P24008)
pIC50: 8.00

----------
assay: Compound was tested in vitro for inhibitory activity against 5-alpha reductase isozyme homogenated from transfected Namalwa; type: functional
Readout: IC50 (nM)

Compound: Cc1c(O[C@@H](C)c2ccc(CC(C)C)cc2)ccc(C(=O)Nc2ccccc2OCCCC(=O)O)c1C (racemic)
Measured Result: 78.7
//
Compound: C/C(=C\C(=O)Nc1ccccc1OCCCC(=O)O)c1ccc2c(ccn2C(c2ccc(F)cc2)c2ccc(F)cc2)c1
Measured Result: 215
//
Compound: CC/C(=C\C(=O)Nc1ccccc1OCCCC(=O)O)c1ccc2c(ccn2C(c2ccc(F)cc2)c2ccc(F)cc2)c1
Measured Result: 357
//
Compound: CC(C)(C)NC(=O)[C@H]1CC[C@H]2[C@@H]3CC[C@H]4NC(=O)C=C[C@]4(C)[C@H]3CC[C@]12C [FINASTERIDE]
Measured Result: 0.58
//
Compound: CCCC(CCC)n1ccc2cc(/C(=C/C(=O)Nc3ccccc3OCCCC(=O)O)CC)ccc21
Measured Result: 341
